B1: Azoarcus group I ribozyme (parent)
chain: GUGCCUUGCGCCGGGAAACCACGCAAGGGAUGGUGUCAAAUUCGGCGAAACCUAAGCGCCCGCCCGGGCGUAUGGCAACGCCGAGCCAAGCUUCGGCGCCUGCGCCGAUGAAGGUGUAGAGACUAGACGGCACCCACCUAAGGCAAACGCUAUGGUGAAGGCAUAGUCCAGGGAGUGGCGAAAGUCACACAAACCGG

Variants of: B1
Test: reverse-splicing fitness (ratio to wild type); higher = more active; in vitro selection; Mg2+ level not given
ASSAY_READOUT: reverse-splicing fitness
API note: the answer field is a bare number with no unit suffix.

Examples from the recorded data:
C82U A111C A145C C150A C169U U176G	0.00709
A111G A120G A145G C150G	0.0366

Note down reverse-splicing fitness recorded for A145G C150A U176A
0.472

Output measured reverse-splicing fitness for this item: C82U A111G A120U A145C C150U C169G U176A
0.00322
